Cited source for all entries: PubChem BioAssay

Reported composite z-score values are given for each entry in this list.
- assayed_system: Fibroblast growth factor 2 (Homo sapiens) (UniProt P09038)
- Sequence (P09038 whole entry, looked up): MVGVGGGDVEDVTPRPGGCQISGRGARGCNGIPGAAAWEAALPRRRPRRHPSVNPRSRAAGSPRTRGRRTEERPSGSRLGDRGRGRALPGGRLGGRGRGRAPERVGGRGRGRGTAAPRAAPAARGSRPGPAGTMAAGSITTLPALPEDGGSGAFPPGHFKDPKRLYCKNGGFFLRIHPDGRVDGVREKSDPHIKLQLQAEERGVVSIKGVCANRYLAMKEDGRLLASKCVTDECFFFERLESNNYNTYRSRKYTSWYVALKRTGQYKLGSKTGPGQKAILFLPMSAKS
- method_summary: FGF2 binders on small-molecule microarrays, primary screen, biochemical, small-molecule microarray, 635/667 nm fluorescence (AID 1133)
- measurement_conditions: small-molecule microarray binding, FGF2, fluorescence 635/667; higher = more signal
measured_parameter: composite z-score

compound=COCCOC(=O)N1C(=O)[C@@]2(c3cc(C#CC4(O)CCCCCC4)ccc31)[C@H](c1ccccc1OCCO)N1[C@H](c3ccccc3)[C@H](c3ccccc3)OC(=O)[C@H]1[C@@H]2C(=O)N1CCN(c2ncccn2)CC1 val=0.846
compound="CCC(CC)C(O)C1C=CC2C(=O)NC(=O)C2N1Nc1ccc(Cl)cc1Cl (centres undefined)" val=-0.0832
compound="COc1cc(NN2C(C(O)c3ccco3)C=CC3C(=O)N(c4ccccc4)C(=O)C32)cc(OC)c1OC (centres undefined)" val=-0.132
compound="CC(C)c1ccc(NN2C(C(O)c3ccc(B(O)O)cc3)C=CC3C(=O)N(c4ccccc4)C(=O)C32)cc1 (centres undefined)" val=-0.159
compound="NC(=O)N1C(=O)C2C(C1=O)C1C=C(c3ccc(CO)cc3)C2C(c2cccs2)N1Cc1cccc(OC(F)(F)F)c1 (centres undefined)" val=-0.365
compound=C=C(CCCC)/C(=C/C[C@@H](OC(C)=O)c1ccc(OCCO)cc1)c1cnc2ccccc2c1 val=0.502
compound=O=C1O[C@@H](c2ccccc2)[C@@H](c2ccccc2)N2[C@@H](c3ccccc3OCCO)[C@]3(C(=O)Nc4ccccc43)[C@@H](C(=O)Nc3nc4ccccc4s3)[C@H]12 val=0.188
compound="CC1CC/C=C\\[C@H]2OC34C=CCN(C(C)(C)C)C(=O)[C@H]3N(CCO)C(=O)[C@@H]4C2C(=O)O1 (some centres undefined)" val=-0.845
compound=O=C1O[C@@H](c2ccccc2)[C@@H](c2ccccc2)N2[C@@H](c3ccccc3OCCO)[C@]3(C(=O)Nc4ccc(C#CC5=CCCCC5)cc43)[C@@H](C(=O)N3CCCCCCC3)[C@H]12 val=0.095
compound=CN(C)CCCC[C@@H]1NC(=O)[C@H]2C[C@@H](C(=O)NCCCCCCN)[C@@H](c3ccc(O)cc3)N2C1=O val=1.82
compound=COC(=O)C(CC#Cc1ccc2c(c1)[C@]1(C(=O)N2)[C@H](C(=O)Nc2nc3ccccc3s2)[C@H]2C(=O)O[C@H](c3ccccc3)[C@H](c3ccccc3)N2[C@@H]1c1ccc(O)cc1)C(=O)OC val=0.973
compound=CCCCCCc1nc(-c2cc(C)c(OC)c(C)c2)cc2c1[Si](C(C)C)(C(C)C)OC2 val=-0.143
compound=COc1ccccc1CN1C(=O)c2ccccc2[C@@]2(Cc3ccccc3N(CC(C)C)C2=O)[C@@H]1c1ccc(CO)cc1 val=-0.556
compound="C=CCC(OC(C)=O)[C@@H]1[C@@H](N(Cc2ccc(-c3cccc(C(F)(F)F)c3)o2)C(=O)c2ccc(C)cc2)c2cc(OCCCO)ccc2N1C(=O)Cc1ccc2ccccc2c1 (some centres undefined)" val=-0.358
